# SYSTEM: His6-AspH315–758 (human aspartate/asparagine-β-hydroxylase, AspH) (Homo sapiens)
# Construct: N-Terminally His6-tagged human AspH315–758 (His6-AspH315–758) was produced in E. coli BL21 (DE3) cells; made in house; host or cells: E. coli BL21 (DE3), pET-28a(+) vector
# Sequence (Q12797 315-758): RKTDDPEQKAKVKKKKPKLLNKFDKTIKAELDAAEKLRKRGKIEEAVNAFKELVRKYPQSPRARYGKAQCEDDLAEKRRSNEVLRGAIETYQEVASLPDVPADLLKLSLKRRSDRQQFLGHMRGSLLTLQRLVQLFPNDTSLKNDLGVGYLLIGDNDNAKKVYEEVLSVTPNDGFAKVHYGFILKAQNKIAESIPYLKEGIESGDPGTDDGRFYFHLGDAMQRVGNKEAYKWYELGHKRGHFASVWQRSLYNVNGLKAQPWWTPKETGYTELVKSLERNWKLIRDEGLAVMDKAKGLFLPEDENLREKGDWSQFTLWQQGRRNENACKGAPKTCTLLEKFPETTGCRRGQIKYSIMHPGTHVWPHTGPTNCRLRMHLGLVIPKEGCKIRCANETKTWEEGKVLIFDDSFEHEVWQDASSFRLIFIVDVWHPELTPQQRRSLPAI
# ASSAY_PROCEDURE: SPE-MS AspH inhibition assay (LOPAC screen at fixed 20 μM and IC50 dose-response), hydroxylation of cyclic peptide hFX-CP101–119
# Type: biochemical
# SETUP_CONDITIONS: LOPAC compound at 20uM, plate 2; normalised to DMSO and 2,4-PDCA controls; read-out: Plate 2 (% inhibition)
Counter-ions that a name gives are not always drawn.
Listed next: entries and their corresponding inhibition at 20 µM.
Give just the numeric value; % need not be written.

- Cc1nc2c([nH]1)c(=O)n(C)c(=O)n2Cc1ccco1: -1.12
- O=C1CCC(c2ccc(-n3ccnc3)cc2)=NN1: -6.74
- N=C(N)N/N=C/c1c(Cl)cccc1Cl [Guanabenz acetate]: 3.85

Request: Query: inhibition at 20 µM; subject: Cc1ccccc1N1C(=O)c2cc(S(N)(=O)=O)c(Cl)cc2NC1C (stereo not shown)
Result: 5.16

Request: Please look up its inhibition at 20 µM: NNc1nncc2ccccc12 [Hydralazine hydrochloride]
Result: -6.7

Request: So what does the record say about inhibition at 20 µM for `O=c1c(-c2ccc(O)cc2)coc2cc(O)cc(O)c12` ?
Result: 48.3

Request: What value of inhibition at 20 µM has been recorded for this entry: NCCc1c[nH]cn1 [Histamine dihydrochloride]
Result: -9.92

Request: inhibition at 20 µM lookup needed for CC(C)C[C@H](NC(=O)[C@H](O)[C@H](N)Cc1ccccc1)C(=O)O [Epibestatin hydrochloride] , thanks.
Result: 1.86

Request: Any idea what its inhibition at 20 µM is? The compound is `OCCN(CCO)c1nc(N2CCCCC2)c2nc(N(CCO)CCO)nc(N3CCCCC3)c2n1`
Result: -19.9

Request: What value of inhibition at 20 µM has been reported for the following compound? N[C@@H](Cc1c[nH]c2ccc(O)cc12)C(=O)O [5-Hydroxy-L-tryptophan]
Result: -4.87
